Test system: 786-0
Assay remarks: NCI tumour cell line growth inhibition, 48 h
Activity calls are given as the source filed them. Rule as the data show it: active = GI50 up to about 1.1 µM and inactive = higher.
Reported values of GI50 for individual entries

GI50 for "COc1ccc(CCN2COc3ccc4ccc(=O)oc4c3C2)cc1OC" is > 100 µM (inactive)

GI50 for "CC(CNC(=O)c1ccccc1)(CNC(=O)c1ccccc1)[N+](=O)[O-]" is > 100 µM (inactive)

GI50 for "O=C1/C(=N\O)S(=O)(=O)c2ccccc21" is > 100 µM (inactive)

----------
Test system: MOLT-4
Assay remarks: NCI tumour cell line growth inhibition, 48 h
Calls of active or inactive are those of the source. Rule as the data show it: active = GI50 up to about 1.1 µM and inactive = higher.
Assay endpoint: GI50

# Molecule, GI50
measured = [
    ("OC(CC(O)(C(F)(F)Cl)C(F)(F)Cl)c1ccccc1 (stereo not drawn)", "> 10 µM (inactive)"),
    ("COC1=CC(=O)c2c(cc3c(c2O)-c2c(OC)cc4cc5c(c(O)c4c2OC(=O)CC(C)(O)C3)C(=O)CC(C)(O)C5)C1=O (stereo not drawn)", "2.27 µM (inactive)"),
    ("COc1ccc(-c2nc3ccc([N+](=O)[O-])cc3c(=O)[nH]2)cc1", "> 100 µM (inactive)"),
    ("CN(C)CCCNc1ccnc2c([N+](=O)[O-])cccc12", "21.8 µM (inactive)"),
    ("Cn1cnc2c(sc3nc4ccccc4n32)c1=N", "> 100 µM (inactive)"),
    ("COc1cc(S(=O)(=O)Nc2ccc(-c3csc(N4C(=O)C(Cl)C4c4cccc(Oc5ccccc5)c4)n3)cc2)ccc1Cl (stereo not drawn)", "15.3 µM (inactive)"),
    ("Cn1c(=O)nc2n(-c3ccc(Cl)cc3)c(-c3ccccc3)c(-c3ccccc3)nc-2c1=O", "16.5 µM (inactive)"),
]

Attention now turns to another entry.
GI50 for "COc1ccccc1-n1c(N)c2c(C)c(-c3ccccc3)[nH]c2nc1=S" is > 100 µM (inactive)
